Hello, the source for this data is patent US20080026996A1, in case you need it.

target-entity: human VPAC2 (Homo sapiens)
Construct: expressed in transfected cells
Sequence (P41587 24-438): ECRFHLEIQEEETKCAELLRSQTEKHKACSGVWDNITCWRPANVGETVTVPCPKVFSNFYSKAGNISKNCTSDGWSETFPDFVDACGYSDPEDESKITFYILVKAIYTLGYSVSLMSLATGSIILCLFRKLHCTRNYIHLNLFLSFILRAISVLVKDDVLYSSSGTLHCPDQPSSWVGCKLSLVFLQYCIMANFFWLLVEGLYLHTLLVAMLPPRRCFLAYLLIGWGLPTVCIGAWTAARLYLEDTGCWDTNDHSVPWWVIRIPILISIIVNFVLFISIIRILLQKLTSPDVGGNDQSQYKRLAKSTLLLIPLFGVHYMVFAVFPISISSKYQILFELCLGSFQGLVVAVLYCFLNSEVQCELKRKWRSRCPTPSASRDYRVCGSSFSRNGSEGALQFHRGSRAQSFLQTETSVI
experimental-protocol: Alpha screen cAMP in vitro potency, human VPAC2 receptor
Type: cell-based
condition-label: cAMP generation; single result from two analyses performed in a single run; read-out: Human VPAC2 Receptor: Alpha Screen EC50
Source text: Alpha screen: Cells are washed in the culture flask once with PBS. Then, the cells are rinsed with enzyme free dissociation buffer. The dissociated cells are removed. The cells are then spun down and washed in stimulation buffer. For each data point, 50,000 cells suspended in stimulation buffer are used. […] The Alpha screen signal (indicative of intracellular cAMP levels) is read in a suitable instrument (e.g. AlphaQuest from Perkin-Elmer). […]
Where no end group is shown, it is not given here. [ ]: non-standard residue; d: D form. The star is where a group is joined. hArg = N=C(N)NCCCC[C@H](N)C(=O)O; Hexanoyl = CCCCCC(=O)*; Aib = CC(C)(N)C(=O)O
EC50 under 0.3 nM gets TRUE, anything at or over 0.3 nM gets FALSE.

[[record]]
substance = "Hexanoyl-HSDAVFTEEYTRLQKQVAAKQYLQSIKNKRYGGPSSGAPPPS [Agonist P165]"
label = "FALSE"

[[record]]
substance = "Hexanoyl-HSDAVFTDNYTRLRKQVAATKYLQSIKNKRYGGPSSGAPPPS [Agonist P152]"
label = "TRUE"

[[record]]
substance = "Hexanoyl-HSDAVFTDNYTRLR[Aib]QVAA[Aib]KYLQSIKNKRYGGPSSGAPPPS [Agonist P261]"
label = "TRUE"

[[record]]
substance = "Hexanoyl-HSDAVFTENYTRLRKQVAAKKYLQSIKNKRYGGPSSGAPPPS [Agonist P159]"
label = "TRUE"

[[record]]
substance = "Hexanoyl-HSDAVFTDNYTRL[Aib]KQVAAKKYLQSIKNKRYGGPSSGAPPPS [Agonist P167]"
label = "TRUE"

[[record]]
substance = "Hexanoyl-HSDAVFTDNYTRLRKQVAAKKYLQYIKNKRYGGPSSGAPPPS [Agonist P127]"
label = "TRUE"

[[record]]
substance = "Hexanoyl-HSDAVFTDNYTRLRKQVAAKAYLQSIKNKRYGGPSSGAPPPS [Agonist P184]"
label = "TRUE"

[[record]]
substance = "Hexanoyl-HSDAVFTDNYTRLQKQVAAQKYLQSIKNKRYGGPSSGAPPPS [Agonist P252]"
label = "TRUE"

[[record]]
substance = "Hexanoyl-HSDAVFTDNYTRLRKQVAAKRYLQSIKNKRYGGPSSGAPPPS [Agonist P182]"
label = "TRUE"

[[record]]
substance = "Hexanoyl-HSDAVFTDNYTRL[Aib]KQLAA[Aib]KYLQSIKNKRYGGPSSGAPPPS [Agonist P240]"
label = "FALSE"

[[record]]
substance = "Hexanoyl-HSDAVFTDNYTRL[hArg]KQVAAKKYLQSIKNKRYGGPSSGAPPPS [Agonist P305]"
label = "TRUE"

[[record]]
substance = "Hexanoyl-HSEAVFTENYTRLR[Aib]QVAA[Aib]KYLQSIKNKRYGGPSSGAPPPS [Agonist P314]"
label = "TRUE"

[[record]]
substance = "Hexanoyl-HSDAVFTDNYTRLRKQVAAKKYLQTIKNKRYGGPSSGAPPPS [Agonist P115]"
label = "TRUE"

[[record]]
substance = "Hexanoyl-HSDAVFTDNYTRLQKQVAAK[Aib]YLQSIKNKRYGGPSSGAPPPS [Agonist P251]"
label = "FALSE"

[[record]]
substance = "Hexanoyl-HSDAVFTDNYTRLRKQVAAKKYLQSYKNKRYGGPSSGAPPPS [Agonist P111]"
label = "FALSE"

[[record]]
substance = "Hexanoyl-HSDAVFTDNYTRLR[Aib]QVAAAKYLQSIKNKRYGGPSSGAPPPS [Agonist P263]"
label = "TRUE"


###

target-entity: human PAC1 (Homo sapiens)
Sequence (P41586 21-468): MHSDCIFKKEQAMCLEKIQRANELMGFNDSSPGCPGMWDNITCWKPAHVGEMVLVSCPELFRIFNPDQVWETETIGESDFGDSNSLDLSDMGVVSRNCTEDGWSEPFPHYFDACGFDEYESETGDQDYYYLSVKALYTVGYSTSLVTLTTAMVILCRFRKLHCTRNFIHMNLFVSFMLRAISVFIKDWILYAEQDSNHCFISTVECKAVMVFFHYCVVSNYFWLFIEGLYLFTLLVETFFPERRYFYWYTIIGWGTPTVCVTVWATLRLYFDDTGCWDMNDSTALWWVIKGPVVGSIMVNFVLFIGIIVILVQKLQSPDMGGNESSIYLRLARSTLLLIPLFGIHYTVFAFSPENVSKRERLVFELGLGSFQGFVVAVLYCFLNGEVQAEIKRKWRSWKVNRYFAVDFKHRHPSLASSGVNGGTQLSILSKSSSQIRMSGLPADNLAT
experimental-protocol: Filter binding assay, membranes of cells transiently transfected with human PAC1, 125I-labeled PACAP-27 tracer (Table 2)
Design: expressed in transfected cells
condition-label: read-out: Human PAC1 Receptor Binding
Where no end group is shown, it is not given here. The star is where a group is joined. Hexanoyl = CCCCCC(=O)*
endpoint-name: IC50 (nM)

[[record]]
substance = "Hexanoyl-HSDAVFTDNYTRLAKQVAAKKYLQSIKNKRYGGPSSGAPPPS [Agonist P173]"
assay_value = 756

[[record]]
substance = "Hexanoyl-HSDAVFTDNYTRLRKQVAAKQYLQSIKNKRYGGPSSGAPPPS [Agonist P183]"
assay_value = 506

[[record]]
substance = "Hexanoyl-HSDAVFTDNYTRLRKQVAAKKYLQSIKNKRGGPSSGAPPPS [Agonist P123]"
assay_value = 265

[[record]]
substance = "Hexanoyl-HSDAVFTDNYTRLRK(Ac)QVAAK(Ac)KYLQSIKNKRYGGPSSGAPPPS [Agonist P193]"
assay_value = 542

